Target: human neuronal constitutive NOS (nNOS) (Homo sapiens (Human), UniProt P29475)
Assay: Human nNOS enzyme assay, radiometric [3H]L-arginine to [3H]L-citrulline
Conditions: Table II; ratio eNOSh/nNOSh
Catalogue of compounds with associated e/n
Form rule: numeric answer, no unit written next to it.

# annotated cases, reported e/n shown
Name the recorded e/n of the compound listed here: N=C(Nc1ccc2ccn(CCCN3CCOCC3)c2c1)c1ccco1 [Compound 183]
14.2

Name the recorded e/n of the compound listed here: N=C(Nc1ccc2ccn(CCCCn3ccnc3)c2c1)c1cccs1 [Compound 168]
9.6

Name the recorded e/n of the compound listed here: CN(C)CCCn1ccc2ccc(NC(=N)c3cccs3)cc21 [Compound 160]
2.11

Name the recorded e/n of the compound listed here: CCN(CC)CCCn1ccc2ccc(NC(=N)c3cccs3)cc21 [Compound 158]
17.2

Okay, next one:
Name the recorded e/n of the compound listed here: CNCCCn1ccc2ccc(NC(=N)c3cccs3)cc21 [Compound 161]
5.57

---

Target: human neuronal constitutive NOS (nNOS) (Homo sapiens (Human), UniProt P29475)
Assay: Human nNOS enzyme assay, radiometric [3H]L-arginine to [3H]L-citrulline
Conditions: read-out: nNOSh; Table II; human NOS; dihydrochloride or monohydrochloride salts
# note: boundary value 0.9 µM maps to -1; IC50 below it maps to 1

Strictly below 0.9 µM: is that where IC50 of CNCCCn1ccc2ccc(NC(=N)c3cccs3)cc21 sits?
-1

Next:
Strictly below 0.9 µM: is that where IC50 of CN1CCC[C@H]1CCn1ccc2ccc(NC(=N)c3cccs3)cc21 sits?
1

Strictly below 0.9 µM: is that where IC50 of N=C(Nc1ccc2ccn(CCN3CCCCC3)c2c1)c1cccs1 sits?
1

Strictly below 0.9 µM: is that where IC50 of CN1CCC[C@@H]1CCn1ccc2ccc(NC(=N)c3cccs3)cc21 sits?
1

Strictly below 0.9 µM: is that where IC50 of N=C(Nc1ccc2ccn(CCCN3CCOCC3)c2c1)c1ccoc1 sits?
-1

Strictly below 0.9 µM: is that where IC50 of CCN(CC)CCCn1ccc2ccc(NC(=N)c3cccs3)cc21 sits?
1

---

Target: murine macrophage iNOS (Mus musculus (Mouse))
Assay: Murine iNOS hemoglobin capture assay
Type: biochemical
Experimental: The NOS isoforms used in this example were recombinant enzymes expressed in E. coli. Rat nNOS was expressed and purified as described previously (Roman et al., Proc. Natl. Acad. Sci. USA 92:8428-8432, 1995). […] IC50 values and percent inhibition of NOS by the compounds of the invention were determined under initial velocity measurement conditions with the hemoglobin capture assay as previously described (Hevel and Marletta, Methods Enzymol. 133:250-258, 1994). […]
Measured Property: IC50 (µM)
The answer is to be given in µM; state only the numeric part.

Name the recorded IC50 of the compound listed here: CN(C)CCc1c[nH]c2ccc(NC(=N)c3cccs3)cc12
43.5

---

Biological target: human neuronal constitutive NOS (nNOS) (Homo sapiens (Human))
Assay: Human nNOS enzyme assay, radiometric [3H]L-arginine to [3H]L-citrulline
Details: read-out: nNOSh; Table I; human NOS; dihydrochloride or monohydrochloride salts
Catalogue of molecules with associated pIC50
As a rule, pIC50 stands for the negative log10 of the concentration, concentration in M.

# annotated cases, reported pIC50 shown
Name the recorded pIC50 of the molecule listed here: N=C(Nc1ccc2[nH]cc(CCCN3CCOCC3)c2c1)c1cccs1 [Compound 181]
5.70

Name the recorded pIC50 of the molecule listed here: CN1CCC(c2c[nH]c3ccc(NC(=N)c4cccs4)cc23)CC1 [Compound 43]
5.73

Name the recorded pIC50 of the molecule listed here: N=C(Nc1ccc2[nH]cc(C3CN4CCC3CC4)c2c1)c1ccco1 (stereo not drawn) [Compound 127]
5.59

Name the recorded pIC50 of the molecule listed here: CN1CCC[C@@H]1Cc1c[nH]c2ccc(NC(=N)c3cccs3)cc12 [Compound 97]
6.08

Name the recorded pIC50 of the molecule listed here: CN1CC=C(c2c[nH]c3ccc(NC(=S)NC(=O)c4ccccc4)cc23)CC1 [Compound 64]
4.85

Next:
Name the recorded pIC50 of the molecule listed here: CN(C)C1CC=C(c2c[nH]c3ccc(NC(=N)c4cccs4)cc23)CC1 (stereo not drawn) [Compound 114]
5.52

Name the recorded pIC50 of the molecule listed here: N=C(Nc1ccc2[nH]cc(C3CCN(C(=N)c4cccs4)CC3)c2c1)c1cccs1 [Compound 77]
6.14

Name the recorded pIC50 of the molecule listed here: CN1CCC(c2c[nH]c3ccc(NC(=N)c4cccs4)cc23)C1 (stereo not drawn) [Compound 110]
6.37

Name the recorded pIC50 of the molecule listed here: CN1CC=C(c2c[nH]c3ccc(NC(=N)c4cccs4)cc23)CC1 [Compound 42]
6.04

---

Target: human endothelial constitutive NOS (eNOS) (Homo sapiens (Human))
Experiment: Human eNOS enzyme assay, radiometric;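 further: recombinant human eNOS expressed in baculovirus-infected Sf9 cells, activity read as [3H]L-arginine turned into [3H]L-citrulline, the product isolated on ion-exchange resin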
Settings: read-out: Human eNOS; Table 2b
Catalogue of molecules with associated pIC50
As a rule, pIC50 stands for the negative log10 of the concentration, concentration in M.

Name the recorded pIC50 of the molecule listed here: CN1CCCC1CCn1ccc2ccc(NC(=N)c3cccs3)cc21 (stereo not drawn) [32(+)]
4.80

---

Target: murine macrophage iNOS (Mus musculus (Mouse), UniProt P29477)
Assay: Murine iNOS hemoglobin capture assay
Assay type: biochemical
Settings: Table 2a; hemoglobin capture assay; read-out: Murine iNOS
Catalogue of compounds with associated IC50
The answer is to be given in µM; state only the numeric part.

Name the recorded IC50 of the compound listed here: CN1CCCC1CCn1ccc2ccc(NC(=N)c3cccs3)cc21 (stereo not drawn)
67.2

Name the recorded IC50 of the compound listed here: CCSC(=N)Nc1ccc2[nH]ccc2c1
46.9

Okay, next one:
Name the recorded IC50 of the compound listed here: N=C(Nc1ccc2ccn(CCc3ccccc3)c2c1)c1cccs1
159

---

Target: human neuronal constitutive NOS (nNOS) (Homo sapiens (Human))
Assay: Human nNOS enzyme assay, radiometric [3H]L-arginine to [3H]L-citrulline
Conditions: Table I; ratio eNOSh/nNOSh
Mark not fulfilled for e/n values under 20, and fulfilled for everything at or above.

Hello, I need to know if CN1CCC(c2c[nH]c3ccc(NC(=N)c4cccs4)cc23)C1 (stereo not shown) [Compound 110] has measured e/n not below 20. Thanks!
fulfilled

Hello, I need to know if N=C(Nc1ccc2[nH]cc(C3CN4CCC3CC4)c2c1)c1ccco1 (stereo not shown) [Compound 127] has measured e/n not below 20. Thanks!
fulfilled

Hello, I need to know if CN(C)C1CCC(c2c[nH]c3ccc(NC(=N)c4cccs4)cc23)CC1 (stereo not shown) [Compound 116] has measured e/n not below 20. Thanks!
not fulfilled

Hello, I need to know if CN1CCC[C@H]1Cc1c[nH]c2ccc(NC(=N)c3ccco3)cc12 [Compound 107] has measured e/n not below 20. Thanks!
not fulfilled

Hello, I need to know if CN1CC=C(c2c[nH]c3ccc(NC(=S)NC(=O)c4ccccc4)cc23)CC1 [Compound 64] has measured e/n not below 20. Thanks!
not fulfilled

Next:
Hello, I need to know if N=C(Nc1ccc2[nH]cc(C3CCNCC3)c2c1)c1cccs1 [Compound 88] has measured e/n not below 20. Thanks!
not fulfilled

Hello, I need to know if N=C(Nc1ccc2[nH]cc(C3CCN(C(=N)c4cccs4)CC3)c2c1)c1cccs1 [Compound 77] has measured e/n not below 20. Thanks!
not fulfilled

Hello, I need to know if CSC(=N)Nc1ccc2[nH]cc(C3=CCN(C)CC3)c2c1 [Compound 75] has measured e/n not below 20. Thanks!
not fulfilled

Hello, I need to know if CN(C)C1CC=C(c2c[nH]c3ccc(NC(=N)c4cccs4)cc23)CC1 (stereo not shown) [Compound 114] has measured e/n not below 20. Thanks!
not fulfilled

Hello, I need to know if CN1CC=C(c2c[nH]c3ccc(NC(=N)c4ccco4)cc23)CC1 [Compound 46] has measured e/n not below 20. Thanks!
fulfilled

Hello, I need to know if CN(C)CCc1c[nH]c2ccc(NC(=N)c3cccs3)cc12 [Compound 18] has measured e/n not below 20. Thanks!
not fulfilled

---

Target: human neuronal constitutive NOS (nNOS) (Homo sapiens (Human), UniProt P29475)
Experiment: Human nNOS enzyme assay, radiometric [3H]L-arginine to [3H]L-citrulline;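 further: recombinant human nNOS expressed in baculovirus-infected Sf9 cells, enzyme activity measured radiometrically as turnover of [3H]L-arginine into [3H]L-citrulline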
Settings: read-out: nNOSh; Table I; human NOS; dihydrochloride or monohydrochloride salts
Grouping by measured IC50 is done with the following cut points: low (below 2000 nM), intermediate (2000 nM to below 3000 nM), high (3000 nM or more)

Below, 4 compounds whose answers are already recorded.
GET /class?item= CSC(=N)Nc1ccc2[nH]cc(C3=CCN(C)CC3)c2c1
intermediate

GET /class?item= N=C(Nc1ccc2[nH]cc(C3CCNCC3)c2c1)c1cccs1
high

GET /class?item= CN1C2C=C(c3c[nH]c4ccc(NC(=N)c5cccs5)cc34)CC1CC2 (stereo not shown)
high

GET /class?item= CN1CCC(c2c[nH]c3ccc(NC(=N)c4ccco4)cc23)CC1
intermediate

Next:
GET /class?item= CN1CCC(c2c[nH]c3ccc(NC(=N)c4ccco4)cc23)C1 (stereo not shown)
low

GET /class?item= N=C(Nc1ccc2[nH]cc(C3CN4CCC3CC4)c2c1)c1cccs1 (stereo not shown)
low

GET /class?item= CN1CC=C(c2c[nH]c3ccc(NC(=N)c4cccs4)cc23)C(F)C1 (stereo not shown)
intermediate

GET /class?item= CNC1CC=C(c2c[nH]c3ccc(NC(=N)c4cccs4)cc23)CC1 (stereo not shown)
low

GET /class?item= N=C(Nc1ccc2[nH]cc(C3CCN(C(=O)c4ccccc4)CC3)c2c1)c1cccs1
high

GET /class?item= CN(C)CCCc1c[nH]c2ccc(NC(=N)c3cccs3)cc12
low

GET /class?item= CCSC(=N)Nc1ccc2[nH]cc(C3=CCN(C)CC3)c2c1
high

// data source = patent US8586620B2
